These entries and their values trace back to ChEMBL document CHEMBL1158391.

test: Cytotoxicity against mouse J774A1 cells after 72 hrs by MTT assay; type: cell-based, J774.A1
Each entry below carries its recorded CC50 at 72 h.
Property Name: CC50 at 72 h (mg/L)

>  <Compound>
N=C(N)c1ccc(OCCCCCOc2ccc(C(=N)N)cc2)cc1

>  <Endpoint Unit>
mg/L

>  <Endpoint Value>
31.3

$$$$
>  <Compound>
COc1cc(-c2cc(SC)nc(Nc3nc(NC(C)(C)C)nc(NC(C)(C)C)n3)n2)cc(OC)c1OC

>  <Endpoint Unit>
mg/L

>  <Endpoint Value>
9.8

$$$$
>  <Compound>
COc1ccc(-c2cc(SC)nc(Nc3nc(N4CCN(C)CC4)nc(N4CCN(C)CC4)n3)n2)cc1OC

>  <Endpoint Unit>
mg/L

>  <Endpoint Value>
36.2

$$$$
>  <Compound>
COc1cc(-c2cc(SC)nc(Nc3nc(N4CCOCC4)nc(N4CCOCC4)n3)n2)cc(OC)c1OC

>  <Endpoint Unit>
mg/L

>  <Endpoint Value>
10.8

$$$$
>  <Compound>
COc1ccc(-c2cc(SC)nc(Nc3nc(N4CCOCC4)nc(N4CCOCC4)n3)n2)cc1OC

>  <Endpoint Unit>
mg/L

>  <Endpoint Value>
23.9

$$$$

###

experiment: Cytotoxicity against mouse J774A1 cells after 72 hrs by MTT assay; type: cell-based, J774.A1
Hi! Could you tag entries with CC50 at 72 h below 20 µg/mL as rule met, and those at or above as rule not met? Much appreciated.

>  <Compound>
CCCNc1nc(NCCC)nc(Nc2nc(SC)cc(-c3cc(OC)c(OC)c(OC)c3)n2)n1

>  <Assigned Class>
rule met

$$$$
>  <Compound>
COc1cc(-c2cc(SC)nc(Nc3nc(N4CCCCC4)nc(N4CCCCC4)n3)n2)cc(OC)c1OC

>  <Assigned Class>
rule not met

$$$$
>  <Compound>
COc1cc(-c2cc(SC)nc(Nc3nc(NC(C)C)nc(NC(C)C)n3)n2)cc(OC)c1OC

>  <Assigned Class>
rule met

$$$$
>  <Compound>
CCCNc1nc(NCCC)nc(Nc2nc(SC)cc(-c3ccc(OC)c(OC)c3)n2)n1

>  <Assigned Class>
rule met

$$$$
>  <Compound>
CCN1CCN(c2nc(Nc3nc(SC)cc(-c4cc(OC)c(OC)c(OC)c4)n3)nc(N3CCN(CC)CC3)n2)CC1

>  <Assigned Class>
rule not met

$$$$
>  <Compound>
COc1cc(-c2cc(N3CCCCC3)nc(N)n2)cc(OC)c1OC

>  <Assigned Class>
rule met

$$$$
>  <Compound>
CCN(CC)CCNc1nc(NCCN(CC)CC)nc(Nc2nc(SC)cc(-c3ccc(OC)c(OC)c3)n2)n1

>  <Assigned Class>
rule not met

$$$$
>  <Compound>
COc1cc(-c2cc(SC)nc(Nc3nc(N4CCN(C)CC4)nc(N4CCN(C)CC4)n3)n2)cc(OC)c1OC

>  <Assigned Class>
rule met

$$$$
>  <Compound>
CCN(CC)CCNc1cc(-c2cc(OC)c(OC)c(OC)c2)nc(N)n1

>  <Assigned Class>
rule not met

$$$$
>  <Compound>
CCCCNc1cc(-c2cc(OC)c(OC)c(OC)c2)nc(N)n1

>  <Assigned Class>
rule not met

$$$$
